# key: entry, value: pIC50
TARGET DESC: FTase (Bos taurus, UniProt P29702+P49355)
Construct: An extract of minced bovine brain was subjected to column chromatography on DEAE-Sephacel (Pharmacia); DEAE-Sephacel active fraction, crude enzyme solution
EXPERIMENT: FTase inhibitory activity (farnesylation of C-terminal peptide of lamin B, crude bovine brain enzyme, FTase [^3 H]SPA enzyme assay kit)
TEST CONDITIONS: bovine brain enzyme, lamin B C-terminal peptide
Quick note: pIC50 values are minus log10 of concentrations in mol/L.

CCCCCCCCCCCC(=O)NC1=CC(=O)C2OC2C1=O (stereo not shown)	4.68
CC(C)=CCC/C(C)=C/CC/C(C)=C/C(=O)NC1=CC(=O)[C@@H]2O[C@@H]2C1=O (relative stereo)	4.68
CC(C)=CCC/C(C)=C/CC/C(C)=C/CC/C(C)=C/C(=O)NC1=CC(=O)C2OC2C1=O (stereo not shown)	4.64

Looking for the measured pIC50 of CCCCC/C=C\C/C=C\CCCCCCCC(=O)NC1=CC(=O)C2OC2C1=O (stereo not shown) , can you help? 4.72

* * *

# key: entry, value: IC50
TARGET DESC: FTase (Rattus norvegicus, UniProt Q02293+Q04631)
Construct: The FTase used for the assay was obtained from rat brain as follows; from tissue; host or cells: male rat brain; ammonium sulfate fraction, Mono Q 10/10, partially purified
EXPERIMENT: FTase inhibitory activity (farnesylation of v-Ki-ras p21, partially purified rat brain FTase)
Format: biochemical
TEST CONDITIONS: Experiment 2; rat brain FTase, v-Ki-ras p21 substrate
Please answer using the number first and the unit second.

CCCC[C@@H](C)/C=C(C)/C=C(\C)C(=O)NC1=CC(=O)[C@@H]2O[C@@H]2C1=O [IVa, reference compound]	60 µM

We next turn to a different compound, shown below.
Looking for the measured IC50 of CCCC[C@@H](C)/C=C(C)/C=C(\C)C(=O)NC1=C[C@](O)(/C=C/C=C/C=C/C(=O)NC2=C(O)CCC2=O)[C@@H]2O[C@@H]2C1=O [Manumycin, reference compound] , can you help? 35 µM

* * *

# key: entry, value: IC50
TARGET DESC: FTase (Rattus norvegicus, UniProt Q02293+Q04631)
Construct: The FTase used for the assay was obtained from rat brain as follows; from tissue; host or cells: male rat brain; ammonium sulfate fraction, Mono Q 10/10, partially purified
EXPERIMENT: FTase inhibitory activity (farnesylation of v-Ki-ras p21, partially purified rat brain FTase)
Assay type: biochemical
TEST CONDITIONS: Experiment 1; rat brain FTase, v-Ki-ras p21 substrate
The reply should be a number in µM, with the unit left off.

CCCC[C@@H](C)/C=C(C)/C=C(\C)C(=O)NC1=C[C@](O)(/C=C/C=C/C=C/C(=O)NC2=C(O)CCC2=O)[C@@H]2O[C@@H]2C1=O [Manumycin, reference compound]	76

We next turn to a different compound, shown below.
Look up IC50 with FTase (Rattus norvegicus, UniProt Q02293+Q04631) for this compound: CC(C)=CCC/C(C)=C/CC/C(C)=C/C(=O)NC1=CC(=O)[C@@H]2O[C@@H]2C1=O (relative stereo) 18
